- Test system: MBL-producing isolates (Enterobacterales)
- measurement.notes: MIC, broth microdilution
- Assay type: cell-based
- settings: Enterobacterales with metallo-carbapenemases (74); cefiderocol 73 isolates; CLSI breakpoints; marked c: breakpoints for β-lactam alone; tigecycline: FDA breakpoints
quantity.name: CLSI MIC interpretation R (resistant) (%)
Field: numeric (%). Do not append units.

molecule.smiles: C[C@H]1COc2c(N3CCN(C)CC3)c(F)cc3c(=O)c(C(=O)O)cn1c23
CLSI MIC interpretation R (resistant) (%): 81.1
//
molecule.smiles: NCC[C@H](O)C(=O)N[C@@H]1C[C@H](N)[C@@H](O[C@H]2O[C@H](CN)[C@@H](O)[C@H](O)[C@H]2O)[C@H](O)[C@H]1O[C@H]1O[C@H](CO)[C@@H](O)[C@H](N)[C@H]1O
CLSI MIC interpretation R (resistant) (%): 52.7
//
molecule.smiles: CC(C)(O/N=C(\C(=O)N[C@@H]1C(=O)N2C(C(=O)[O-])=C(C[n+]3ccccc3)CS[C@H]12)c1csc(N)n1)C(=O)O
CLSI MIC interpretation R (resistant) (%): 98.6
//
molecule.smiles: C[C@@H](O)[C@H]1C(=O)N2C(C(=O)O)=C(S[C@@H]3CN[C@H](C(=O)N(C)C)C3)[C@H](C)[C@H]12
CLSI MIC interpretation R (resistant) (%): 64.9

// CC(C)(O/N=C(\C(=O)N[C@@H]1C(=O)N2C(C(=O)[O-])=C(C[N+]3(CCNC(=O)c4ccc(O)c(O)c4Cl)CCCC3)CS[C@H]12)c1csc(N)n1)C(=O)O : CLSI MIC interpretation R (resistant) value = 1.4

====

Documented Ki across a set of molecules
- system: SHV-2 (Klebsiella pneumoniae)
- Sequence (P0A9Z8 22-286): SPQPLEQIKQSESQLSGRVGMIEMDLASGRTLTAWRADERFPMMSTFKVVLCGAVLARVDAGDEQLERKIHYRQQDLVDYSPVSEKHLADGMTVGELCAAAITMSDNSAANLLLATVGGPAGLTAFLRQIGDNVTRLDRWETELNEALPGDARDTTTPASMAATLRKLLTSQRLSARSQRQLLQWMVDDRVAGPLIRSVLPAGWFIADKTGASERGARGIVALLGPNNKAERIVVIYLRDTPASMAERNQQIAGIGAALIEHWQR
- measurement.notes: Ki app determination (Waley's method)

// C[C@]1(Cn2ccnn2)[C@H](C(=O)O)N2C(=O)C[C@H]2S1(=O)=O [Tazobactam, tazobactam] : Ki value = 0.187 nM

// NC(=O)[C@@H]1CC[C@@H]2CN1C(=O)N2OS(=O)(=O)O [Avibactam, avibactam] : Ki value = 2.26 nM

// O=C(NC1CCNCC1)[C@@H]1CC[C@@H]2CN1C(=O)N2OS(=O)(=O)O [Relebactam, relebactam] : Ki value = 0.373 nM

// O=C(O)C[C@@H]1CC[C@H](NC(=O)Cc2cccs2)B(O)O1 [Vaborbactam, vaborbactam] : Ki value = > 100000 nM

// N[C@@H](C(=O)N1CC(Oc2ccc3c(c2C(=O)O)OB(O)CC3)C1)c1c[nH]cn1 [KSP-1007] : Ki value = 361 nM

====

Documented Ki across a set of compounds
- system: OXA-24 (Acinetobacter baumannii)
- Sequence (Q8RLA6 20-275 limits assumed): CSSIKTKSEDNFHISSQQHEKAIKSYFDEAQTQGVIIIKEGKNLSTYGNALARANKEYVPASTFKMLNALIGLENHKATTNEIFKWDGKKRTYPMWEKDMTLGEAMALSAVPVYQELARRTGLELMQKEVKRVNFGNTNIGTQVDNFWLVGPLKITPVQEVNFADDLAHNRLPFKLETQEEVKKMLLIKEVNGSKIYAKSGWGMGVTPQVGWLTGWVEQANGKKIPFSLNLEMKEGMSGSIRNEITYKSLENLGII
- measurement.notes: Ki app determination (Waley's method)
Field: numeric (nM). Do not append units.

molecule.smiles: C[C@]1(Cn2ccnn2)[C@H](C(=O)O)N2C(=O)C[C@H]2S1(=O)=O
system: OXA-24 (Acinetobacter baumannii)
Ki, nM: 100

// N[C@@H](C(=O)N1CC(Oc2ccc3c(c2C(=O)O)OB(O)CC3)C1)c1c[nH]cn1 : Ki value = 1.09

====

- System: 96 P. aeruginosa
- measurement.notes: MIC, broth microdilution
- Type: cell-based, Pseudomonas aeruginosa
- settings: Pseudomonas aeruginosa (96); fixed concentration (μg/mL) in label; read-out: MIC90
Documented MIC90 across a set of compounds

See these solved cases before continuing.
molecule.smiles: CC(C)(O/N=C(\C(=O)N[C@@H]1C(=O)N2C(C(=O)[O-])=C(C[n+]3ccccc3)CS[C@H]12)c1csc(N)n1)C(=O)O
system: 96 P. aeruginosa
MIC90: > 32 µg/mL
//
molecule.smiles: C[C@H]1[C@H](NC(=O)/C(=N\OC(C)(C)C(=O)O)c2csc(N)n2)C(=O)N1S(=O)(=O)O
system: 96 P. aeruginosa
MIC90: > 64 µg/mL
//
molecule.smiles: C[C@@H](O)[C@H]1C(=O)N2C(C(=O)O)=C(SCCN=CN)C[C@H]12
system: 96 P. aeruginosa
MIC90: > 32 µg/mL

Attention now turns to another entry.
// NCC[C@H](O)C(=O)N[C@@H]1C[C@H](N)[C@@H](O[C@H]2O[C@H](CN)[C@@H](O)[C@H](O)[C@H]2O)[C@H](O)[C@H]1O[C@H]1O[C@H](CO)[C@@H](O)[C@H](N)[C@H]1O : MIC90 value = > 64 µg/mL
